The measurements presented in this section are drawn from patent US10959992B2.

- procedure_summary: Lung/plasma distribution of norketotifen in rats
- Format: in vivo, SPD rats
- experimental_context: male, SPD, rat, lung/plasma, oral, 20 mg/kg/day, Dose Day 4; read-out: Lung/Plasma Ratio in Rats

[
  {
    "molecule": "O=C1Cc2ccccc2C(=C2CCNCC2)c2ccsc21 (racemic)",
    "Kp": 133
  }
]

====

- procedure_summary: Lung/plasma distribution of norketotifen in dogs
- Assay type: in vivo, Beagle dogs
- experimental_context: female, Beagle, dog, lung/plasma, po, 11.46 mg/kg/day, mean of three dogs, Day 4, once daily oral dosing; read-out: Lung / Plasma Ratio in Dogs, Mean ± SEM

[
  {
    "compound": "O=C1Cc2ccccc2C(=C2CCNCC2)c2ccsc21 (racemic) [norketotifen]",
    "Kp": 70
  }
]
